Quick reference: inhibition at 200 µM of the listed items.
# System name: UniProt:Q12908
# Assay name: ASBT cis-inhibition of taurocholate uptake in ASBT-MDCK cells
# Condition: read-out: percent taurocholate inhibited at the highest inhibitor concentration
Where a name gives a salt, the structure may show the parent alone.
Form entry: value (%) — number only.

Below are worked cases with known answers.
INSERT INTO assay_data (molecule, observable, recorded_measurement) VALUES
  ('COc1ccc([C@@H]2Sc3ccccc3N(CCN(C)C)C(=O)[C@@H]2OC(C)=O)cc1 [Diltiazem hydrochloride, diltiazem hydrochloride]', 'inhibition at 200 µM', 36.4),
  ('CC(C)(C#N)c1cc(Cn2cncn2)cc(C(C)(C)C#N)c1', 'inhibition at 200 µM', 18);

As a next step, examine the molecule that follows.
(Q) Would you kindly share the measured inhibition at 200 µM for CCCCNc1cc(C(=O)O)cc(S(N)(=O)=O)c1Oc1ccccc1 [Bumetanide, bumetanide] ?
(A) 32.1

----------
# System name: human apical sodium-dependent transporter (SLC10A2, ASBT) (Homo sapiens)
# Sequence (Q12908 1-348): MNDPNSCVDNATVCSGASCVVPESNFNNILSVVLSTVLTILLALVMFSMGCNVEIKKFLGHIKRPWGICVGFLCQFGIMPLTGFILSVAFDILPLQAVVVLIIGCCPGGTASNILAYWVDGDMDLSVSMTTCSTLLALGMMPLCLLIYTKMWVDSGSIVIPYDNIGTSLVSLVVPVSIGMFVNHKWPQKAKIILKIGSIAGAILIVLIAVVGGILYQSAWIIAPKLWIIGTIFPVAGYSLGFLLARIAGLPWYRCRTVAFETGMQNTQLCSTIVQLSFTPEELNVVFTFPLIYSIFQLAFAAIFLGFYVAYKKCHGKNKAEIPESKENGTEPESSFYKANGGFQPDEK
# Condition: 500 µM
Structures can show the parent of a compound that is named as a salt.
Observable: inhibition

Below are worked cases with known answers.
INSERT INTO measurements (compound, observable, recorded_measurement) VALUES
  ('COc1ccc2c(c1)c(CC(=O)O)c(C)n2C(=O)c1ccc(Cl)cc1', 'inhibition', '76.4%'),
  ('Cc1c(OCC(F)(F)F)ccnc1C[S+]([O-])c1nc2ccccc2[nH]1 (stereo not shown)', 'inhibition', '73.6%'),
  ('CC(C)c1nc(N(C)S(C)(=O)=O)nc(-c2ccc(F)cc2)c1/C=C/[C@@H](O)C[C@@H](O)CC(=O)O', 'inhibition', '71%'),
  ('CC(C(=O)O)c1cccc(C(=O)c2ccccc2)c1 (stereo not shown)', 'inhibition', '49.7%');

(Q) Would you kindly share the measured inhibition for COc1ccc([C@@H]2Sc3ccccc3N(CCN(C)C)C(=O)[C@@H]2OC(C)=O)cc1 [Diltiazem hydrochloride, diltiazem hydrochloride] ?
(A) 52.4%

(Q) Would you kindly share the measured inhibition for CN1CCN(CC/C=C2/c3ccccc3Sc3ccc(S(=O)(=O)N(C)C)cc32)CC1 ?
(A) 25.7%

(Q) Would you kindly share the measured inhibition for O=C(O)C[C@H](O)C[C@H](O)/C=C/c1c(C2CC2)nc2ccccc2c1-c1ccc(F)cc1 ?
(A) 78.6%

----------
Quick reference: pKi of the listed items.
# System name: human apical sodium-dependent transporter (SLC10A2, ASBT) (Homo sapiens, UniProt Q12908)
# Assay name: ASBT cis-inhibition of taurocholate uptake in ASBT-MDCK cells
# Condition: Ki, inhibitor concentration range 0-5000 μM; mean±S.E.
Bear in mind: pKi is minus log10 of a mol/L concentration; give just that figure.

INSERT INTO assay_data (molecule, system_name, recorded_measurement) VALUES
  ('CC(C)n1c(/C=C/C(O)CC(O)CC(=O)O)c(-c2ccc(F)cc2)c2ccccc21 (stereo not drawn)', 'human apical sodium-dependent transporter (SLC10A2, ASBT) (Homo sapiens, UniProt Q12908)', 4.61);

(Q) Enter reported pKi observed with human apical sodium-dependent transporter (SLC10A2, ASBT) (Homo sapiens, UniProt Q12908) for CC(C(=O)O)c1cccc(C(=O)c2ccccc2)c1 (stereo not drawn)
(A) 3.51

(Q) Enter reported pKi observed with human apical sodium-dependent transporter (SLC10A2, ASBT) (Homo sapiens, UniProt Q12908) for CN1CCN(CC/C=C2/c3ccccc3Sc3ccc(S(=O)(=O)N(C)C)cc32)CC1
(A) 3.04
